assay: protein stability index of a GFP-peptide fusion (GPS, HEK-293T) (PSI 1-6); higher = more stable; settings: treatment: MLN4924 1 uM, 8 h; c terminus: a fixed tail appended;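 further: 24-mer peptide tiles fused after GFP, lentivirally expressed, FACS-sorted into six equal bins by GFP/DsRed ratio, decoded by Illumina sequencing, PSI is the read-weighted mean bin number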
Parameter threshold = 3. Response is class 1 when protein stability index meets or exceeds it, else class 0.

> print(dat)
                          sequence.code  category.label
 1      PGSCGAGAPSPGSSDVSTAGTGAS [ELF3]         class 1
 2     VLGADGVCMTFMKQIAGGDVTAKN [INTS3]         class 1
 3      GGHSRERADEPQWSLYPSDSQVSE [CHGB]         class 1
 4     GKLKWNLAAVTPHDFIEHILRKLP [CCND2]         class 0
 5     VASVGNSRPTGQQLESLGLLAPGE [KISS1]         class 1
 6  RLWRLFQTLDVNRDGGLCVNDLAV [SLC25A25]         class 0
 7    KGGYKEFFPQHPNFCEPQDYRPMN [CDC25B]         class 1
 8     SFPRNNISYLVLSMISMGLFSIAP [JAGN1]         class 1
 9  GRSFREEQCVSFNSHVYNGRTHQW [ADAMTSL2]         class 1
10      NSFSLNSSISSSARRTTRSEPIRR [MAP2]         class 1
11      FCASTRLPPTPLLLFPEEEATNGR [AUP1]         class 1
12     LSAFYLSYFDMLYPEDSSWAAKAP [SPDEF]         class 0
13     TRLSRLQEKEELRELNDRLAVYID [LMNB1]         class 1
14      MIMLKDRRMTVVGRLEGLIQPDDL [FAF2]         class 0
15     LALDREPPPHLLPEKHQVPEKLIW [WDR88]         class 1
16    EEDCAWSQELPPPDPGPSPEASHL [ZNF263]         class 1
17     TLLPASLFVNSHPGIDRPGMLCSF [DCAF4]         class 0
18     YYERVLKRKTFNKVLGHVNNILIS [GDAP1]         class 0
19   HECGTKYPVEWAKFCCECGIRRMI [ZC2HC1A]         class 0
20    GERPYKCSECGESFSRSSRLMSHQ [ZNF263]         class 1
21    AATRGGSHLQAAAQTPPRPGPPSA [SCNN1D]         class 1
22    NTNLHTHQRTHTGEKPFTCHECGK [ZNF75A]         class 1
23    LVSGSQSALGPPPAASNSSDLFDL [CLINT1]         class 1
24  AGRIDREELCAQSARCVVSFNILV [PCDHGA10]         class 0
25    LIFFGGYGYLPEDKVLGTFEFDET [KLHDC2]         class 0
26   WNFEITNQSFNIVDIKPANMEELT [PPP2R2B]         class 1
27   LHVKRSMGWKKACDELELHQRFLR [ZMYND11]         class 0
28     FVELIGPKLREETAHMLGVRELRI [CABP4]         class 0
29    PAPPPPAGGATAWGDLLGEDSLAA [SNAP91]         class 1
30    THSPQKSHQCAHCEKTFNRKDHLK [PLAGL1]         class 1
31      PSPPTSPPWGLGPGAGDPAPGIGP [MYCL]         class 1
32    PSTLGRCKAFSTCVSHLIIVTVHY [OR10K2]         class 0
33      VYEDETKVVHAVDGTAENGIHPLS [PALM]         class 1
34   LRRKSPASGQGPMCNVKAPLGSPS [ADAMTS4]         class 1
35   GVDSMAEEGTSDSNTGSESNSATV [SMARCE1]         class 1
36       GRESYIPGICVARVYHGWLFEGLG [SLA]         class 0
37    FGRYLEHLEVKFMNPYNAVLTKKF [FBXO39]         class 0
38     REPYYARPEPELETFSPPLPAGPG [CPXM2]         class 1
39      GPPSRGGHMDDGGYSMNFNMSSSR [RBMX]         class 1
40     MPAATVDHSQRICEVWACNLDEEM [CNOT7]         class 1
41     LCQVAQEALASAGASCCGQPLASH [VENTX]         class 1
42     SQFLKLKTSVEKANAQIQILTRSW [CD207]         class 0
